molecular target: canine CD3 on canine T cells (canine PBMC) (canine, UniProt P27597 22-202); experiment: cell-based or functional assay
Sequence (P27597 22-202 limits assumed, chain 1 of 3): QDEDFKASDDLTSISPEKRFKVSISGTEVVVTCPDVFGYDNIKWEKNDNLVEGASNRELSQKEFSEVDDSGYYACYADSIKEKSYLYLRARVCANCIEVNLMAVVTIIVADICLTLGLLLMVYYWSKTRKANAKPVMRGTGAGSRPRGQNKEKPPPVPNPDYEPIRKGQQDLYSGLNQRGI
Sequence (chain, as listed by the source limits assumed, chain 2 of 3): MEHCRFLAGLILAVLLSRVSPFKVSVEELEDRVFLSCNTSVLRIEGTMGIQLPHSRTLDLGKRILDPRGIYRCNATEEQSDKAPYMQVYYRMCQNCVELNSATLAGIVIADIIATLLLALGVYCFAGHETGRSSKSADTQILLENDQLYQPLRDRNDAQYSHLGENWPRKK
Sequence (chain, as listed by the source limits assumed, chain 3 of 3): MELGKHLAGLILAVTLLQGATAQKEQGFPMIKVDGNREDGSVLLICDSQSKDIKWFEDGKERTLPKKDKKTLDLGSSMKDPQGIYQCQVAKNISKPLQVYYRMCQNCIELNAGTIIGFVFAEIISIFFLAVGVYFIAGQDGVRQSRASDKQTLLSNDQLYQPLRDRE
Quick list: IFNy Concentration pg/ml, Day 6, IS per entry.
Field format: number, assumed pg/mL, no unit text.

PMX177 (monospecific anti-canine CD3, canine IgG-B effector function deficient Fc) (antibody, V domains shown) VH: EVTLQESGPGLVKPSQTLSLTCVVSGGSVTSSFYWNWIRQRPGRGLEWMGYWTGSTNYNPAFQGRISITADTAKNQFSLHLGSMTTDDTAMYYCAREEGSWGRVYFDYWGQGTLVTVSS VL: SYVLTQLPSKNVTLKQPAHITCGGDNIGSKSVHWYQQKLGQAPVLIIYYDSSRPTGIPERFSGANSGNTATLTISGALAEDEADYYCQVWDSSTKTWVFGEGTQLTVL	28.8

For the binder PMX194 (monospecific anti-canine CD3, canine IgG-B effector function deficient Fc) (antibody, V domains shown) VH: EVQLVESGGDLVKPGGSLRLSCVASGFTFSNYHMSWVRQAPGKGLQWVAYSNSGRMSTDYADAVKGRFTISRDNAKNTLYLQMNSLRPEDTAVYYCATVIYGLFDYWGQGTLVTVSS VL: DIVMTQTPLSLSVSPGEPASISCKASQSLLYSNGNTYLYWFRQKPGQSPQRLIYKVSKRDSGVPDRFSGSGSGTDFTLRIRRVEADDAGVYYCGQGTQDPYTFSQGTKLEIK , give its measured IFNy Concentration pg/ml, Day 6, IS value.
133

For the binder PMX184 (monospecific anti-canine CD3, canine IgG-B effector function deficient Fc) (antibody, V domains shown) VH: ELTLQESGPGLVKPSQTLSLTCGVSGGSVTRSHYWNWVRQRPGRGLEWMGYWTGSTNYNPAFQGRISITADTAKNQFSLQLRSMTTEDTAVYFCARETTIPTFFFDYWGQGTLVTVSS VL: SYVLTQLPSKNVTLKQPAHITCGGDNIGSKSVHWYQQKLGQAPVLIIYYDSSRPTGIPERFSGANSGNTATLTISGALAEDEADYYCQVWDSGAKAWVFGEGTQLTVL , give its measured IFNy Concentration pg/ml, Day 6, IS value.
74.8

The values you see were collected from patent US20240209086A1.
